SYSTEM_TESTED: Akt1 (Homo sapiens, UniProt P31749)
Construct: (His)6 (N); made in house; host or cells: Sf9 insect cells (baculovirus, pBlueBacHis2B)
Sequence (P31749 whole entry): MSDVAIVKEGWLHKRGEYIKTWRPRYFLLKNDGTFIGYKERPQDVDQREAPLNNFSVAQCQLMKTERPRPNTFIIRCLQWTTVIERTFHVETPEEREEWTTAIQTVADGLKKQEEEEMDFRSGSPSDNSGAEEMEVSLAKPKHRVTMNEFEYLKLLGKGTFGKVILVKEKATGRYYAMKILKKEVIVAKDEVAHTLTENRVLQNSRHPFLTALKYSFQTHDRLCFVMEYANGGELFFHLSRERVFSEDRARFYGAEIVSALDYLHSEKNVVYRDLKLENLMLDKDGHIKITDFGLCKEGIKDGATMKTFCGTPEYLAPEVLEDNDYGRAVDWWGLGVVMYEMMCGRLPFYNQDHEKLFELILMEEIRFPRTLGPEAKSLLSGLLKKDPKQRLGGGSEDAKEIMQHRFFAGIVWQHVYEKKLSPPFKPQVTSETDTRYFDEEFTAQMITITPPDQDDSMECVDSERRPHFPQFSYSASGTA
ASSAY_INFO: Akt1 kinase assay (33P phosphorylation of biotinylated Gsk3-derived peptide, streptavidin Flash plates)
Format: biochemical
TEST_SETTINGS: Table 2; active recombinant Akt1
pIC50: −log10 of the molar value.
pIC50 values for the molecules below.
ATTRIBUTE_MEASURED: pIC50

| MOLECULE | MEASURED_NUMBER |
| --- | --- |
| COc1cccc(CNc2ncc(-c3ccc4[nH]nc(C)c4c3)nc2N2CCNCC2)c1 [drawing 109] | 6.83 |
| Cc1n[nH]c2ccc(-c3cnc(NCc4cccc(F)c4)c(N4CCNCC4)n3)cc12 [drawing 103] | 7.36 |
| Cc1n[nH]c2ccc(-c3cnc(N)c(NCCN)n3)cc12 | 7.13 |
| Cc1n[nH]c2ccc(-c3cnc(N)c(N4CCN[C@@H](Cc5ccccc5)C4)n3)cc12 [drawing 106] | 7.26 |
| Cc1n[nH]c2ccc(-c3cnc(NCc4ccccc4)c(N4CCN[C@@H](Cc5ccccc5)C4)n3)cc12 [drawing 104] | 7.12 |
| Cc1n[nH]c2ccc(-c3cnc(NCc4ccccc4)c(NCCN)n3)cc12 | 7.10 |
| Cc1n[nH]c2ccc(-c3cnc(NCc4ccccc4Cl)c(N4CCNCC4)n3)cc12 [drawing 105] | 6.89 |
| Cc1n[nH]c2ccc(-c3cncc(N4CCN[C@@H](Cc5ccccc5)C4)n3)cc12 [Example 2] | 9.00 |
| Cc1ccccc1CNc1ncc(-c2ccc3[nH]nc(C)c3c2)nc1N1CCNCC1 [drawing 108] | 6.85 |
| Cc1n[nH]c2ccc(-c3cnc(NCc4ccccc4)c(N4CCNCC4)n3)cc12 [drawing 101] | 7.34 |
